Target chain: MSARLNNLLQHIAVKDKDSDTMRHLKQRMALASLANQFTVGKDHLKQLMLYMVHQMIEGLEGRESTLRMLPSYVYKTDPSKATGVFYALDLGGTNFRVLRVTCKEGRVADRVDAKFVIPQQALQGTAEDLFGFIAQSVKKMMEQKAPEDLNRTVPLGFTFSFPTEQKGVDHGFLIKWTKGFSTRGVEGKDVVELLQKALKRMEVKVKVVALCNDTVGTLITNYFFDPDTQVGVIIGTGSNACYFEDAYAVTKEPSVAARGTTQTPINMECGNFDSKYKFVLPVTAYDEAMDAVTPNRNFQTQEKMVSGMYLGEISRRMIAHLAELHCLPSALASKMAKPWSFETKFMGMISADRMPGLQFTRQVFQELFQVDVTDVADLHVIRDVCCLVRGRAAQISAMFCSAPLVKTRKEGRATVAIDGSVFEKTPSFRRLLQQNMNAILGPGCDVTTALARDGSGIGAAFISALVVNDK
readout label: IC50 (µM)

>>> value_reported("Cc1cc(-c2cccc(CC(O)(P(=O)(O)O)P(=O)(O)O)c2)c(F)cc1F")
2.29
>>> value_reported("O=P(O)(O)C(CNc1cccc(-c2ccccc2)c1)P(=O)(O)O")
3.47
>>> value_reported("O=P(O)(O)C(O)(c1cccc(-c2ccccc2)c1)P(=O)(O)O")
34.7
>>> value_reported("O=P(O)(O)C(Nc1cccc(-c2ccccc2)c1)P(=O)(O)O")
1.95
>>> value_reported("Cc1cccnc1NC(P(=O)(O)O)P(=O)(O)O")
45.7

====

Tested on: Dictyostelium discoideum
Experiment: Cytotoxicity to Dictyostelium discoideum
Format: functional, organism-based
So basically: is IC50 under 80 µM? Then True. Not under? Then False.

>>> label("C[C@H](NC(P(=O)(O)O)P(=O)(O)O)c1cccc2ccccc12")
"True"
>>> label("O=P(O)(O)C(Nc1ncccc1OCc1ccccc1)P(=O)(O)O")
"True"
>>> label("O=P(O)(O)C(Nc1cccc(-c2ccc(F)c(F)c2)c1)P(=O)(O)O")
"True"
>>> label("O=P(O)(O)C(Nc1cccc(Br)c1)P(=O)(O)O")
"False"
>>> label("O=P(O)(O)C(O)(c1cccc(-c2ccccc2)c1)P(=O)(O)O")
"False"
>>> label("CC1CCN(C(P(=O)(O)O)P(=O)(O)O)CC1")
"True"
>>> label("O=P(O)(O)C(O)(Cn1cnc(-c2ccccc2)c1)P(=O)(O)O")
"False"
>>> label("CCCNC(P(=O)(O)O)P(=O)(O)O [(PROPYLAMINO)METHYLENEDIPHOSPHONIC ACID]")
"True"
>>> label("O=P(O)(O)C(O)(Cn1cnc2ccccc21)P(=O)(O)O")
"True"
>>> label("CN(CCOc1ccccc1)CCC(O)(P(=O)(O)O)P(=O)(O)O")
"True"

====

Reported pIC50 values are given for each entry in this list.
Molecular target: Hexokinase (Trypanosoma cruzi, UniProt Q8ST54)
Sequence (Q8ST54 whole entry): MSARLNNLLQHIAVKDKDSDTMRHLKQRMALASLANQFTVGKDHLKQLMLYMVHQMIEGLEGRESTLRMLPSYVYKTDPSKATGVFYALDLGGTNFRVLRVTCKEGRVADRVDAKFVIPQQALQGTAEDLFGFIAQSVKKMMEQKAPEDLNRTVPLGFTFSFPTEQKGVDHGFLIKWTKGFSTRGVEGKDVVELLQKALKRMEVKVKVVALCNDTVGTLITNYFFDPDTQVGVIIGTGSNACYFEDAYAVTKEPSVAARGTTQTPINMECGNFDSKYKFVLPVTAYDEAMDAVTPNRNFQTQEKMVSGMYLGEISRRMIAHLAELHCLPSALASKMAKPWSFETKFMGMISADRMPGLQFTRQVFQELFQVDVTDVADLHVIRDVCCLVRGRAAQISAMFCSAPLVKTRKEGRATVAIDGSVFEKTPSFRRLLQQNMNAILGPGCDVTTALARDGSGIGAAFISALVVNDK
pIC50: −log10 of the molar value.
readout label: pIC50

>>> value_reported("CCn1c2ccccc2c2cc(NC(P(=O)(O)O)P(=O)(O)O)ccc21")
6.09
>>> value_reported("O=P(O)(O)C(O)(Cc1ccncc1)P(=O)(O)O")
4.90
>>> value_reported("O=[N+]([O-])c1cccc(NC(P(=O)(O)O)P(=O)(O)O)c1")
5.62
>>> value_reported("O=P(O)(O)C(Nc1cccc(-c2ccc(F)c(F)c2)c1)P(=O)(O)O")
5.56
>>> value_reported("COCc1cccc(NC(P(=O)(O)O)P(=O)(O)O)c1")
5.39
>>> value_reported("CCCCCCCc1ccc(NC(P(=O)(O)O)P(=O)(O)O)cc1")
5.84
>>> value_reported("O=P(O)(O)C(Nc1cccc(CO)c1)P(=O)(O)O")
4.83
>>> value_reported("O=P(O)(O)C(Nc1cccc(Br)c1)P(=O)(O)O")
6.02

====

Target: Hexokinase (Trypanosoma cruzi, UniProt Q8ST54)
Sequence (Q8ST54 whole entry): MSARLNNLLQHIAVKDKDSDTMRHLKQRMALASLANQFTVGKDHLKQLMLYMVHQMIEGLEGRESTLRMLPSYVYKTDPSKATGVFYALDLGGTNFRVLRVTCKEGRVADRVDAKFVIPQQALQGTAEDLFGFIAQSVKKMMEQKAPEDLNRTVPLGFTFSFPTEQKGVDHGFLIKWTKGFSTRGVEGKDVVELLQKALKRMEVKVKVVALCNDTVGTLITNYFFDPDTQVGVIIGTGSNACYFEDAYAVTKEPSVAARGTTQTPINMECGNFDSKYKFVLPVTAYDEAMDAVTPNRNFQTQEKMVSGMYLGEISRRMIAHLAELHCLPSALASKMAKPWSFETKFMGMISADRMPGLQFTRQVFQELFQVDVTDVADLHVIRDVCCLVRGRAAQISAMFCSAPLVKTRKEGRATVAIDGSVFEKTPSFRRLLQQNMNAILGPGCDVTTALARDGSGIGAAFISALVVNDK
pIC50: −log10 of the molar value.
readout label: pIC50

>>> value_reported("Cc1cccc(Cc2ccc[n+](CC(O)(P(=O)(O)O)P(=O)(O)O)c2)c1")
"≤ 3.52"
>>> value_reported("C[C@H](NC(P(=O)(O)O)P(=O)(O)O)c1cccc2ccccc12")
"≤ 3.52"
>>> value_reported("CN(CCOc1ccccc1)CCC(O)(P(=O)(O)O)P(=O)(O)O")
"≤ 3.52"
>>> value_reported("O=P(O)(O)C(O)(C[n+]1cccc(-c2ccccc2)c1)P(=O)(O)O")
"≤ 3.52"
>>> value_reported("O=P(O)(O)C(Nc1ccc(Cl)cc1Cl)P(=O)(O)O")
"≤ 3.52"
>>> value_reported("CCCCN(CC)C(P(=O)(O)O)P(=O)(O)O")
"≤ 3.52"
>>> value_reported("O=c1ccc(-c2cccc(CC(O)(P(=O)(O)O)P(=O)(O)O)c2)c[nH]1")
"≤ 3.52"
>>> value_reported("O=P(O)(O)C(NC1CC1)P(=O)(O)O")
"≤ 3.52"
>>> value_reported("C[N+](C)=c1ccn(CC(O)(P(=O)(O)O)P(=O)(O)O)cc1")
"≤ 3.52"
>>> value_reported("O=P(O)(O)C(O)(Cc1cccnc1)P(=O)(O)O [RISEDRONIC ACID]")
"≤ 3.52"
>>> value_reported("O=P(O)(O)C(Nc1ncccc1OCc1ccccc1)P(=O)(O)O")
"≤ 3.52"
